Origin of values: PubChem BioAssay AID1159580

- ASSAY_EXPLANATION: chemical genetic growth profiling, strain panel (AID 1159580);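 note: tested at 20 µM; growth read once vehicle control cultures reached saturation at 30 °C; lower values mean less growth of the strain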
- CONDITION_SUMMARY: S. cerevisiae deletion strains, growth OD, locus YLR058C, strain SHM2
Among all 5,500 compounds or so, about 2,000 (36%) were called active. Another 18% or so got no clear call; they are omitted. Cut-off read from the data, not from the text of the source: active = normalized growth mostly below about 0.91 (no sharp cut-off); inconclusive = no clear call, values can overlap the other calls; inactive = mostly above about 0.92. The list shows a part of the results.
Outcomes: true for active, false for inactive

COMPOUND	GROUP_LABEL
CN1CCN(CCCN2c3ccccc3Sc3ccc(C(F)(F)F)cc32)CC1	true
Cc1c(NC(=O)c2cccnc2)c(=O)n(-c2ccccc2)n1C	false
O=C(CCc1ccc(O)cc1)c1c(O)cc(O)cc1O[C@@H]1O[C@H](CO)[C@@H](O)[C@H](O)[C@H]1O	false
OCCN1CCN(CCCN2c3ccccc3Sc3ccc(C(F)(F)F)cc32)CC1	false
COc1c2ccoc2cc2oc(C)cc(=O)c12	false
NC1C[C@H]1c1ccccc1 (stereo not given in full)	false
Cc1cc(C(C)(C)C)cc(C)c1CC1=NCCN1	false
O=c1[nH]cnc2c1ncn2C1O[C@H](CO)[C@@H](O)[C@H]1O (stereo not given in full)	false
CC1(C)C(=O)[C@@H]2O[C@@H]2[C@@]2(C)C1CC(=O)[C@]1(C)C2CC[C@@]2(C)[C@H](c3ccoc3)OC(=O)[C@H]3O[C@]321 (stereo not given in full)	false
COc1c2occc2c(OC)c2c(=O)cc(C)oc12	false
